// reported melting point per item

Sample answers from the record:
O=C(O)c1cc([N+](=O)[O-])ccc1Nc1ccc(CCCc2ccc(Cl)c(Cl)c2)cc1 :: 153 to 155 °C
CN(C)c1ccc(CNc2ccc(C(F)(F)F)cc2[N+](=O)[O-])cc1 :: 158 to 160 °C
CCCOC1(OC)C=CC=C(N2CCC(c3noc4cc(F)ccc34)CC2)C1O (configuration not stated) :: 134 to 135 °C
CC(C)(CCl)c1cc(Cl)nnc1Cl :: 66.5 to 68.5 °C
O=C(c1ccccc1)N1CCc2[nH]c3c(cnc4cc(Cl)ccc43)c2C1 :: 275 °C
CC1(C)Oc2ccsc2C(NC(=O)c2cccnc2)C1O (configuration not stated) :: 248 to 249 °C

Inquiry: Retrieve melting point measured for CC(OCCCNC(=O)c1coc(-c2ccc(/C(=C\CCCCC(=O)O)c3cccnc3)cc2)n1)C1CCCCC1 (configuration not stated) and print it.
Reply text: 80 to 85 °C

Inquiry: Retrieve melting point measured for COc1ccc(S(=O)(=O)Nc2cccc3c2Nc2ccc(F)c(O)c2CO3)cc1 and print it.
Reply text: 219 to 232 °C

Inquiry: Retrieve melting point measured for CCS(=O)(=O)CCN1CCCCC1 and print it.
Reply text: 45 to 47 °C
